assay: Selectivity index, ratio of ED50 for human HeLa cells to IC50 for Plasmodium falciparum Nigerian after 72 hrs by [3H]hypoxanthine incorporation assay; format: functional
So I've got a bunch of compounds here, and I need their Ratio values.
Reply briefly: the number, and no unit.

Sure, the documented Ratio for COc1c(O)cc(O)c2c(=O)c3cccc(O)c3n(C)c12 [CITRUSININE-II] is 1.8

Sure, the documented Ratio for `CC(C)=CCc1c(O)cc2c(c1O)c(=O)c1c(CC=C(C)C)ccc(O)c1n2C` is 9.4

Sure, the documented Ratio for COc1c(O)c(CC=C(C)C)c(O)c2c(=O)c3cccc(O)c3n(C)c12 [GLYCOCITRINE-IV] is 2.1

Sure, the documented Ratio for `Cn1c2c(O)cccc2c(=O)c2c(O)cc3c(c21)C=CC(C)(C)O3` is 9

* * *

So I've got a bunch of compounds here, and I need their CC50 at 24 h values.
assay: Cytotoxicity against human HeLa cells after 24 hrs by [3H]hypoxanthine incorporation assay; assay type: cell-based; details: read-out: ED50
Use µM as the unit, but write only the number.

Sure, the documented CC50 at 24 h for `Cn1c2c(O)cccc2c(=O)c2c(O)cc3c(c21)C=CC(C)(C)O3` is 85.5

Sure, the documented CC50 at 24 h for `COc1c(O)cc(O)c2c(=O)c3cccc(O)c3n(C)c12` is 16.8

Sure, the documented CC50 at 24 h for `COc1c(O)c(CC=C(C)C)c(O)c2c(=O)c3cccc(O)c3n(C)c12` is 0.71

Sure, the documented CC50 at 24 h for `CC(C)=CCc1c(O)cc2c(c1O)c(=O)c1c(CC=C(C)C)ccc(O)c1n2C` is 47.2

* * *

system: Plasmodium falciparum; test: Antiplasmodial activity against chloroquine-resistant Plasmodium falciparum FcM29 after 72 hrs by [3H]hypoxanthine uptake; format: functional, organism-based
So I've got a bunch of compounds here, and I need their IC50 values.
Use µM as the unit, but write only the number.

Sure, the documented IC50 for `CC(C)=CCc1c(O)cc2c(c1O)c(=O)c1c(CC=C(C)C)ccc(O)c1n2C` is 7.1

Sure, the documented IC50 for `COc1c(O)cc(O)c2c(=O)c3cccc(O)c3n(C)c12` is 20.5

Sure, the documented IC50 for `Cn1c2c(O)cccc2c(=O)c2c(O)cc3c(c21)C=CC(C)(C)O3` is 6.8

Sure, the documented IC50 for `COc1c(O)c(CC=C(C)C)c(O)c2c(=O)c3cccc(O)c3n(C)c12` is 2.3

* * *

So I've got a bunch of compounds here, and I need their CC50 at 72 h values.
assay: Cytotoxicity against human HeLa cells after 72 hrs by [3H]hypoxanthine incorporation assay; type: cell-based; settings: read-out: ED50

Sure, the documented CC50 at 72 h for `Cn1c2c(O)cccc2c(=O)c2c(O)cc3c(c21)C=CC(C)(C)O3` is 78 µM

Sure, the documented CC50 at 72 h for `COc1c(O)c(CC=C(C)C)c(O)c2c(=O)c3cccc(O)c3n(C)c12` is 5.3 µM

Sure, the documented CC50 at 72 h for `CC(C)=CCc1c(O)cc2c(c1O)c(=O)c1c(CC=C(C)C)ccc(O)c1n2C` is 52.2 µM

Sure, the documented CC50 at 72 h for CCN(CC)CCCC(C)Nc1ccnc2cc(Cl)ccc12 (stereo not given) [CHLOROQUINE PHOSPHATE] is > 100 µM

Sure, the documented CC50 at 72 h for `COc1c(O)cc(O)c2c(=O)c3cccc(O)c3n(C)c12` is 35.1 µM

Numbers sourced from ChEMBL document CHEMBL1156343.
